Target: LgTrip 3546 (with His tag; SEQ ID NO: 51)
Sequence (chain, as listed by the source): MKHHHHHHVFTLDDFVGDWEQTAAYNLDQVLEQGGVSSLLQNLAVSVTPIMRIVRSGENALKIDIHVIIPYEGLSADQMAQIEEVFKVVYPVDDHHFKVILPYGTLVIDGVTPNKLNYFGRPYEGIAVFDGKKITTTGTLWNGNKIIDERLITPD
Test: luminescence complementation
Conditions: modification not given
QUANTITY_MEASURED: Kd (nM)
Kindly answer with a numeric value in nM, unit omitted.

Request: Query: Kd; subject: GKMLFRVTIGKWK [668]
Response: 60
